These entries and their values trace back to patent US20200262867A1.

Task for the reader: assign each of the following binders its reported pIC50.
Target: T1, β-catenin (UniProt P35222 1-781, limits assumed)
T1 construct: also called beta-catenin
T1 sequence (looked up): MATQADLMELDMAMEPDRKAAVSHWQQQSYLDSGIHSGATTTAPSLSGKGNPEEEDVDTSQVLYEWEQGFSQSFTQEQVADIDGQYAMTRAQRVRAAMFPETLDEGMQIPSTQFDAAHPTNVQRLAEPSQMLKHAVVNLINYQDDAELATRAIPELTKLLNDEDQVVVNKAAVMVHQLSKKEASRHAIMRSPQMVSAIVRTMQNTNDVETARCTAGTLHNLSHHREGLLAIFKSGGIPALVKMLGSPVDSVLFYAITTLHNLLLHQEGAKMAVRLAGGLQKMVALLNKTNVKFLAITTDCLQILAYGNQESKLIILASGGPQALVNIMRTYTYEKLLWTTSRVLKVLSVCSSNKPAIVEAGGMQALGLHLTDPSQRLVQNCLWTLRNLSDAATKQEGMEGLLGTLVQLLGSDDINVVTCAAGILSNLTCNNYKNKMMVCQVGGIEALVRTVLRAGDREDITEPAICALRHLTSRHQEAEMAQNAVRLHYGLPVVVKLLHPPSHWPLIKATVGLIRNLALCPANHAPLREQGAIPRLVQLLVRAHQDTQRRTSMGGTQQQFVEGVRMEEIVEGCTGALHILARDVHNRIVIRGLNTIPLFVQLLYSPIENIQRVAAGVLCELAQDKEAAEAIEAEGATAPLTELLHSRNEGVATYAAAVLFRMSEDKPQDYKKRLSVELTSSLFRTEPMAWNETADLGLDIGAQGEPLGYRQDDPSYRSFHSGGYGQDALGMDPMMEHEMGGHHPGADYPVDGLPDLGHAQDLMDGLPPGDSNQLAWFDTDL
Assay: ALPHA Screen (BCL9/β-catenin);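 note: bead proximity readout with the polypeptide linked to donor beads and β-catenin fixed on acceptor beads, their binding bringing the beads close enough to emit signal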
Bridges are numbered along the chain shown (N, C = ends). Where no end group is shown, it is not given here. [ ]: non-standard residue; d: D form. 2Nal = N[C@@H](Cc1ccc2ccccc2c1)C(=O)O; NMeR = CN[C@@H](CCCNC(=N)N)C(=O)O; NMeQ = CN[C@@H](CCC(N)=O)C(=O)O; Cha = N[C@@H](CC1CCCCC1)C(=O)O; Cba = N[C@@H](CC1CCC1)C(=O)O; S5 = C=CCCC[C@](C)(N)C(=O)O
Remember the convention: pIC50 equals -log10 of concentration in molar.

Prompt line: Fill in: pIC50 of Ac-HRQRSL[NMeQ]TLR[S5]IQR[S5][Cba][2Nal]-NH2 (staple 11-15) [SEQ ID NO: 153] is ___
Response line: 6.58

Prompt line: GET /values?readout=pIC50&item= Ac-EHRERSLQTLR[S5]IQR[S5]L[2Nal]-NH2 (staple 12-16; not fully specified; printed as EHRERSLQTLRXIQRXL(2-Nal)) [SEQ ID NO: 7]
Response line: 6.09

Prompt line: # get_value(readout='pIC50', item= HRQRSLQT[Cha]R[S5]IQR[S5][Cba][2Nal] (staple 11-15; not fully specified (residues 3, 7, N-terminus, C-terminus); printed as HR(N-methylQ)RSL(N-methylQ)T(Cha)RXIQRX(CBA)(2-Nal), X/X stapled, (S) α-methyl, N-terminal Ac, C-terminal NH2) [SEQ ID NO: 163] )
Response line: 6.71

Prompt line: Recorded pIC50 of Ac-H[NMeR]QRSLQTLR[S5]IQR[S5][Cba][2Nal]-NH2 (staple 11-15) [SEQ ID NO: 166] , please.
Response line: 6.39
